Can you tell me pKd for the items I'm about to list?
- tested-target: PhoP L113D (Mycobacterium tuberculosis, UniProt P71814 1-247, L113D)
- protocol-text: ITC; 5 mM MgCl2; ITC: 20 mM HEPES pH 7.5, 100 mM NaCl, 5 mM MgCl2, 25 C, […]
- reported-conditions: protein: recombinant; tags: N-terminal His-tag removed with TEV; chain copies: 2
One number for each entry, as −log10 of the molar value.

Some solved cases for reference:
lpqA (dsDNA) DNA 1: GCACCTTCACCGCCCGCCCACAGCCACGCA DNA 2: TGCGTGGCTGTGGGCGGGCGGTGAAGGTGC ... 5.54
hisG (dsDNA) DNA 1: CGCGACCCGCAGCATGCTCACAGCTTTCGA DNA 2: TCGAAAGCTGTGAGCATGCTGCGGGTCGCG ... 6.93
ahpC (dsDNA) DNA 1: TTTGCCTGACAGCGACTTCACGGCACGATG DNA 2: CATCGTGCCGTGAAGTCGCTGTCAGGCAAA ... 6.23
DR (dsDNA) DNA 1: ACGATTCACAGCTGATTCACAGCATCTACG DNA 2: CGTAGATGCTGTGAATCAGCTGTGAATCGT ... 7.58

Could you now look at the following binder, please?
Lab note: measured pKd of DRs3 (3-bp spacer) (dsDNA) DNA 1: AAGTACCTCACAGCACTTCACAGCTTTCAT DNA 2: ATGAAAGCTGTGAAGTGCTGTGAGGTACTT was 6.43

Hey, just so you know, these numbers are from paper PMC4832192.
